# TGI values compiled below
test system: SW-620 colon; assay: NCI tumour cell line growth inhibition, 48 h
Parameter Measured: TGI

>>> readout_value("[Se]=P(c1ccccc1)(c1ccccc1)c1ccc(C(c2ccccc2)=P(c2ccccc2)(c2ccccc2)c2ccccc2)cc1")
"19.2 µM"
>>> readout_value("CN1CCCN(C)C1c1cc([N+](=O)[O-])ccc1O")
"> 100 µM"
>>> readout_value("O=C(O)CCCCCOc1cccnc1/C=N/NC1=NCCN1")
"> 100 µM"
>>> readout_value("COc1cc(/C=C2\\CC3C4CC=C5C[C@@H](OC(C)=O)CC[C@]5(C)C4CC[C@]3(C)C2=O)ccc1OCCCn1ccnc1 (some centres not stated)")
"23.3 µM"
>>> readout_value("O=C(Nc1nc2c(=O)[nH]cnc2s1)c1ccccc1")
"> 100 µM"
>>> readout_value("Cn1c(=O)c2c(nc3n(Cc4ccccc4)c(=O)c(NCCBr)cn23)n(C)c1=O")
"> 100 µM"
>>> readout_value("O=c1[nH]nc(-c2ccccc2)n1/N=C/c1ccncc1")
"> 100 µM"

###

tested on: SK-MEL-28 melanoma
Outcome codes: class 1 for active, class 0 for inactive

>>> discrete_label("NNc1cccc(/C=C/c2ccccc2)cc1=O")
"class 0"
>>> discrete_label("CCCCCCCCCCN(CCCCCCCCCC)CC(=O)c1ccc2cc(Br)c3ccccc3c2c1")
"class 0"
>>> discrete_label("ClC(Cl)c1nc(-c2cccnc2)n2nc(-c3ccccc3)cc2n1")
"class 0"
>>> discrete_label("Cc1nc2sc(C(=O)Nc3cccc4ccccc34)c(N)c2cc1C(=O)c1ccccc1")
"class 0"
>>> discrete_label("COCCOC(=O)NC(=O)Nc1ccc(/C(=N/O)c2ccc(Cl)cc2)cc1")
"class 0"
>>> discrete_label("Cc1sc(C)c(Cc2c(C)sc(C)c2CCl)c1CCl")
"class 0"
>>> discrete_label("Cc1cc(C)c(C[N+](C)(C)C)c(C)c1C")
"class 1"
>>> discrete_label("O=C(Nc1ccc(F)cc1)c1c(NC(=O)C(F)(F)F)sc2c1CCCCC2")
"class 0"
>>> discrete_label("O=C(c1ccc2ncc(-c3nc(NC4CC4)ncc3F)n2c1)N1CCOCC1")
"class 0"
>>> discrete_label("OCC1OC(n2ccc3c(NO)ncnc32)C(O)C1O (stereo unspecified)")
"class 1"
>>> discrete_label("CCOC(=O)C(=Cc1ccccc1[N+](=O)[O-])C(=O)OCC")
"class 0"

###

system: CCRF-CEM leukemia; assay: NCI tumour cell line growth inhibition, 48 h
# TGI values compiled below
Parameter Measured: TGI (µM)

>>> readout_value("O=C(O)/C(=C/c1c(O)ccc2ccccc12)c1csc(-c2nc(/C(=C\\c3c(O)ccc4ccccc34)C(=O)O)cs2)n1")
31.4
>>> readout_value("CCN1C(=S)N(CC)C2C1NC(=S)N2/N=C/C=C/c1ccccc1 (stereo not given)")
12
>>> readout_value("C(CCC[Te][Te]CCCCCCOC1CCCCO1)CCOC1CCCCO1 (stereo not given)")
41.4
>>> readout_value("O=C1Sc2ccc(Br)cc2C(=O)Sc2ccccc21")
7.47

###

# TGI values compiled below
tested on: SF-295 CNS; assay: NCI tumour cell line growth inhibition, 48 h
Parameter Measured: TGI

>>> readout_value("COc1cccc(C(=O)N2CCc3ccccc32)c1OC")
"> 100 µM"
>>> readout_value("Clc1nc(Cl)c(Cl)c(Cl)n1")
"36.9 µM"
>>> readout_value("O=C(Nc1nc2ccccc2n1Cc1ccccc1)NC12CC3CC(CC(C3)C1)C2")
"37 µM"
>>> readout_value("O=C(Nc1ccc(F)cc1)c1c(NC(=O)C(F)(F)F)sc2c1CCCCC2")
"3.26 µM"
>>> readout_value("O=C(Nc1nc2c(=O)[nH]cnc2s1)c1ccccc1")
"> 100 µM"
>>> readout_value("OCCSCc1ccccc1")
"> 100 µM"
>>> readout_value("COC(=O)c1sc(C(=O)OC)c2c1CSC2")
"> 100 µM"
>>> readout_value("O=C1C=C(Br)C(=O)C12CCc1ccccc12 (configuration not stated)")
"36.6 µM"
>>> readout_value("CC(=O)OCCOCNC(=S)N/N=C(\\C)c1cnc2ccccc2n1")
"> 100 µM"
>>> readout_value("CCCCc1c(C(=O)OC(C)(C)C)cc(C#Cc2cc(C(=O)OC(C)(C)C)c(CCCC)c(C(=O)OC(C)(C)C)c2)cc1C(=O)OC(C)(C)C")
"> 100 µM"
>>> readout_value("O=C1C(NCCc2ccc(O)c(O)c2)=CC(=O)c2ncccc21")
"28.5 µM"
>>> readout_value("CCOC(=O)N1CCN(c2ccc3c(C)cc(C)nc3n2)CC1")
"> 100 µM"
>>> readout_value("N#Cc1cnc2cc(OC[C@@H](O)CO)c(NC(=O)CC3CSSC3)cc2c1Nc1ccc(OCc2cccc(F)c2)c(Cl)c1")
"1.78 µM"
>>> readout_value("CC1=C[C@H]2c3c(c(O)c(O)c4oc5ccccc5c(=O)c34)[C@H](c3cc(O)c(O)c4oc5ccccc5c(=O)c34)[C@H]2C(C)(C)C1")
"2.28 µM"
>>> readout_value("CCC(=O)C(C)C1=Nc2nnc(CCCCCCCc3nnc4n3C(=O)C(C(C)C(=O)CC)=N4)n2C1=O (configuration not stated)")
"> 100 µM"
>>> readout_value("O=C(O)CCCCCOc1cccnc1/C=N/NC1=NCCN1")
"> 100 µM"
>>> readout_value("CC(C)C(C/C=C1\\CC(CO)(COC(=O)c2ccccc2)OC1=O)C(C)C (configuration not stated)")
"28.7 µM"
>>> readout_value("O=C1CSc2nc3ccccc3n2/C=N\\N1")
"> 100 µM"
>>> readout_value("COC(=O)C(C)(N=Cc1ccccc1)c1ccccc1 (configuration not stated)")
"> 100 µM"
>>> readout_value("CCOC(=O)c1[nH]c(-c2ccc(Cl)cc2)cc1-c1cccnc1")
"> 100 µM"
>>> readout_value("Cc1ccc(OCC2OC(n3cnc4c(N(C)C)nc(Br)nc43)CC2Oc2ccc(C)cc2)cc1 (configuration not stated)")
"> 100 µM"
>>> readout_value("Cc1sc(C)c(Cc2c(C)sc(C)c2CCl)c1CCl")
"> 100 µM"
